System: KOPN-8 cells
Assay: Cell Titer Glo viability assay, KOPN-8
Type: cell-based
Details: Homo sapiens, 72-h treatment
property-measured: pEC50
Note on pEC50: it is the negative log10 of concentration, concentration in mol/L.

Recall the reported pEC50 of CC(C)[C@@H](C)/C=C/[C@@H](C)[C@H]1CC[C@@H]2[C@]1(C)CC[C@H]1[C@]23C=C[C@]2(C[C@@H](O)CC[C@]12C)OO3 [EP, ergosterol peroxide] when tested on KOPN-8 cells.
4.65

* * *

Experiment: physchem
Conditions: organic solvent or mixture
property-measured: solubility

Tell us which solubility value is on record for CC(C)[C@@H](C)/C=C/[C@@H](C)[C@H]1CC[C@H]2C34C=CC5(C[C@@H](OC(=O)NS(=O)(=O)c6ccccc6)CC[C@]5(C)C3CC[C@]12C)OO4 (stereo partly shown) [EP sulfonamide, ergosterol peroxide sulfonamide]
≥ 10 mM
